# testSystem: Mitogen-activated protein kinase 14 (Homo sapiens, UniProt Q16539)
# Sequence (Q16539 whole entry): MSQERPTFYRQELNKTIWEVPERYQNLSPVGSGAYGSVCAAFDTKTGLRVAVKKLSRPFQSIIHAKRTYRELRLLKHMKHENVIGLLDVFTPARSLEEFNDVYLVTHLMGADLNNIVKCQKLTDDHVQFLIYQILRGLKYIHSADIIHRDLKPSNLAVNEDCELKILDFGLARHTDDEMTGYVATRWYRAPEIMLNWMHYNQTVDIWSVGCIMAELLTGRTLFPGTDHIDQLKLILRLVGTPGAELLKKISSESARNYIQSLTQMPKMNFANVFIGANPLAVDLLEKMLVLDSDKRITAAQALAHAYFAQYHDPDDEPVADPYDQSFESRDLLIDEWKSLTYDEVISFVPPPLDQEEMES
# assayProcedure: Inhibition of p38alpha after 1 hr by ELISA
Listed molecules paired with reported pIC50
Reminder that pIC50 means the negative base-10 logarithm of the concentration expressed in mol/L.

INPUT: Quick one: give measured pIC50 for COc1cc([C@H]2CC(=O)Oc3cc(O)c4c(c32)O[C@H](c2cc(O)c(OC)c(O)c2)[C@@H](O)C4)ccc1O
OUTPUT: 4.29

INPUT: Consider the molecule O=C(O[C@@H]1Cc2c(O)cc(O)cc2O[C@@H]1c1ccc(O)c(O)c1)c1cc(O)c(O)c(O)c1 [EPICATECHIN GALLATE] . State its measured pIC50.
OUTPUT: 5.83

INPUT: Dear colleague, please send me the reported pIC50 for COc1c(O)cc([C@H]2Oc3cc(O)cc(O)c3C[C@H]2O)cc1O when you can.
OUTPUT: 4.41

INPUT: // fetch pIC50 given entry O=C(O[C@@H]1Cc2c(O)cc(O)cc2O[C@@H]1c1cc(O)c(O)c(O)c1)c1cc(O)c(O)c(O)c1 [EPIGALOCATECHIN GALLATE]
OUTPUT: 5.66
